Entry source: patent US20190010158A1

# Test system: human acute T lymphoblastic leukemia CCRF-CEM cell lines
# Measurement notes: Cell growth inhibition 1 (CellTiter-Glo)
# Type: cell-based
# Condition details: culture with test compound 72 hours
pIC50: −log10 of the molar value.
pIC50 values, listed per item

# Compound, pIC50
measured = [
    ("Nc1ncnc2c1c(C#Cc1c(F)cc(N3CCSCC3)cc1F)cn2[C@@H]1O[C@H](CNS(N)(=O)=O)[C@@H](O)[C@H]1O [Reference Example 37]", 8.22),
    ("CN1CCOc2c1ccc(F)c2C#Cc1cn([C@@H]2C[C@H](CNS(N)(=O)=O)[C@@H](O)[C@H]2O)c2ncnc(N)c12 [Reference Example 122]", 8.06),
    ("Nc1ncnc2c1c(C#Cc1c(F)cc(N3CCCC(O)C3)cc1F)cn2[C@@H]1O[C@H](CNS(N)(=O)=O)[C@@H](O)[C@H]1O (stereo partly shown) [Reference Example 38]", 7.85),
    ("Nc1ncnc2c1c(C#Cc1c(F)cc(N3CC(O)C3)cc1F)cn2[C@@H]1O[C@H](CNS(N)(=O)=O)[C@@H](O)[C@H]1O [Reference Example 39]", 8.11),
]
